- TARGET_SYSTEM: vitamin D receptor (Rattus norvegicus, UniProt P13053)
- Construct: Full-length recombinant rat receptor was expressed in E. coli; His tag (C); made in house; host or cells: E. coli BL21(DE3) Codon Plus RIL
- Sequence (P13053 whole entry): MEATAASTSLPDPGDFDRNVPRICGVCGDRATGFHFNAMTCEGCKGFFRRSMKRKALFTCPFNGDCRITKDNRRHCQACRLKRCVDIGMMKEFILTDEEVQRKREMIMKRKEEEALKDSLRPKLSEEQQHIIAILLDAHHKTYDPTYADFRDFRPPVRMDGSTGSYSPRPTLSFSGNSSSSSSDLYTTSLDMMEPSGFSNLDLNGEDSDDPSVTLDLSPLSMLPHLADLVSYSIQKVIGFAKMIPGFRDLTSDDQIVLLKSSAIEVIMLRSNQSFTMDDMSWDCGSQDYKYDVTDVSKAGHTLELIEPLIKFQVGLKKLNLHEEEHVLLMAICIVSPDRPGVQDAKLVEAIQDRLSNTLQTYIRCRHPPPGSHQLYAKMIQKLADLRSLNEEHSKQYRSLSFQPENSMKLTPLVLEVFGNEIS
- ASSAY_INFO: Competitive vitamin D receptor binding
- TEST_CONDITIONS: present compounds; read-out: Competitive VDR Binding, Ki
ENDPOINT_NAME: Ki
Entry format: amount then unit.

>>> print(df.to_string())
                                   compound                             target_system  meas_value
0  C=C1[C@H](O)CC(=C/C=C2\CCC[C@]3(C)[C@@H]([C@H](C)/C=C/[C@@H](O)C4(C(=O)SCCCC)CC4)CC[C@@H]23)C[C@H]1O [AS-51]  vitamin D receptor (Rattus norvegicus, UniProt P13053)      0.1 nM

Attention now shifts to the item below.
**Q:** Bench note: what Ki did C=C1[C@H](O)CC(=C/C=C2\CCC[C@]3(C)[C@@H]([C@H](C)/C=C/C(=O)C4(C(=O)CCC(C)C)CC4)CC[C@@H]23)C[C@H]1O [PP-48] show?
**A:** 0.6 nM

---

Let's look at some compounds and their measured EC50.
- System: 24-hydroxylase (24OHase) gene promoter
- ASSAY_INFO: In vitro 24-hydroxylase transcription assay (luciferase reporter, ROS 17/2.8 bone cells)
- Format: cell-based
- TEST_CONDITIONS: present compounds
Answer in nM, number only, no unit symbol.

                                   compound  output_unit  meas_value
0  C=C1[C@H](O)CC(=C/C=C2\CCC[C@]3(C)[C@@H]([C@H](C)/C=C/C(=O)C4(C(=O)CCC(C)C)CC4)CC[C@@H]23)C[C@H]1O           nM           2

Attention now shifts to the item below.
**Q:** Bench note: what EC50 did C=C1[C@H](O)CC(=C/C=C2\CCC[C@]3(C)[C@@H]([C@H](C)/C=C/[C@@H](O)C4(C(=O)SCCCC)CC4)CC[C@@H]23)C[C@H]1O show?
**A:** 6
